Biological target: hSTING (HAQ) (Homo sapiens, UniProt Q86WV6, G230A/H232R/R293Q/R71H)
Sequence (Q86WV6 whole entry R71H/G230A/H232R/R293Q): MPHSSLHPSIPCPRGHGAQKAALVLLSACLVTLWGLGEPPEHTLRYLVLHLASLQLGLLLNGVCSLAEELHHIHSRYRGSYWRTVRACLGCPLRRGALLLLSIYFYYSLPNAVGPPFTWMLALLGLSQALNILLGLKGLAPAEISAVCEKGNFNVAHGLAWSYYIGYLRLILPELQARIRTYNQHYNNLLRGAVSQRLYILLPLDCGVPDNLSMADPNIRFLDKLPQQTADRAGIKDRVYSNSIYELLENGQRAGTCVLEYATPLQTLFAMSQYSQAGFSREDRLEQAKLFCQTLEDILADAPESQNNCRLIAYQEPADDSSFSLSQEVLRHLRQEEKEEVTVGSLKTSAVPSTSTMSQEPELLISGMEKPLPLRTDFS
Assay: Luciferase reporter assay in HEK293T-hSTING-Luciferase cells (HAQ polymorph)
Settings: EC50 range
Description: • a) Stable STING expressing cells—Stable HEK293T STING-expressing cell lines were generated using plasmids purchased from Invivogen, CA, USA, that contain STING cDNA cloned into the pUNO-1 vector under hEF1-HTLV promoter and containing the Blasticidin selection cassette. […]
pEC50: −log10 of the molar value.
As shown below, each of these compounds has a reported pEC50 value.
Attribute Measured: pEC50

Smiles Notation	Observed Measurement
CC1(C)C(=O)N(Cc2c(F)cccc2Cl)c2cc(C(=O)NCc3cc4ccc(F)cc4o3)ccc21	≥ 6.00
Cc1cccc(CNC(=O)c2ccc3c(c2)N(Cc2c(F)cccc2Cl)C(=O)C3(C)C)c1	5.00 to 6.00
Cc1nn(C)c(CN2C(=O)C(C)(C)c3ccc(C(=O)NCc4cc5cc(F)c(F)cc5o4)cc32)c1F	≥ 6.00
CC1(C)C(=O)N(Cc2cccc(Cl)c2)c2cc(C(=O)NCc3c(F)cc(F)cc3F)ccc21	5.00 to 6.00

====

Attribute: EC50
target: WT/R232 STING protein (Homo sapiens, UniProt Q86WV6, H232R); construct: host or cells: HEK293T; test: Luciferase reporter assay in HEK293T-hSTING-Luciferase cells (R232); type: cell-based; conditions: 20 hr stimulation, EC50 range
Sequence (Q86WV6 whole entry H232R): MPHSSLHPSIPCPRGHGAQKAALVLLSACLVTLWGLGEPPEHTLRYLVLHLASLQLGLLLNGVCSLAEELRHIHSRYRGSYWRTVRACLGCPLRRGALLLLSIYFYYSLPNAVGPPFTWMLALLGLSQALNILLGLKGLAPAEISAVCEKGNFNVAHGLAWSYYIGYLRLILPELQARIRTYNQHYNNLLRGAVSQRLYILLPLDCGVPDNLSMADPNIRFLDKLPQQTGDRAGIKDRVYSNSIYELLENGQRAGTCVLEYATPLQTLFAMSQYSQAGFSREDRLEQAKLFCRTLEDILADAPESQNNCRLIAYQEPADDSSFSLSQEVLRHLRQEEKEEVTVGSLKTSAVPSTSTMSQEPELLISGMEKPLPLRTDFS
Attribute Measured: EC50

Compound	System Name	Observed Measurement
Cc1cccc(C)c1CN1C(=O)C(C)(C)c2ccc(C(=O)NCc3c(F)cc(F)cc3F)cc21	WT/R232 STING protein (Homo sapiens, UniProt Q86WV6, H232R)	1 to 10 µM
CC1C(=O)N(Cc2cc(F)cc(F)c2)c2cc(C(=O)NCc3c(F)cc(F)cc3F)ccc21 (stereo not shown)	WT/R232 STING protein (Homo sapiens, UniProt Q86WV6, H232R)	> 10 µM
O=C(NCc1ccco1)c1ccc2c(c1)N(Cc1c(F)cccc1Cl)S(=O)(=O)C2	WT/R232 STING protein (Homo sapiens, UniProt Q86WV6, H232R)	> 10 µM
CC1(C)C(=O)N(Cc2cc(F)cc(F)c2)c2cc(C(=O)NCC3CCC(F)(F)C3)ccc21 (stereo not shown)	WT/R232 STING protein (Homo sapiens, UniProt Q86WV6, H232R)	> 10 µM
CC1(C)C(=O)N(Cc2cc(F)cc(F)c2)c2cc(C(=O)NCc3cccc(C(F)(F)F)c3)ccc21	WT/R232 STING protein (Homo sapiens, UniProt Q86WV6, H232R)	> 10 µM
CC1(C)C(=O)N(Cc2ccccc2F)c2cc(C(=O)NCc3c(F)cc(F)cc3F)ccc21	WT/R232 STING protein (Homo sapiens, UniProt Q86WV6, H232R)	≤ 1 µM
CC1(C)C(=O)N(Cc2c(F)cccc2Cl)c2cc(C(=O)NCc3ccc(F)cc3F)ccc21	WT/R232 STING protein (Homo sapiens, UniProt Q86WV6, H232R)	≤ 1 µM
